Every entry's value here was drawn from patent US8293734B2.

system: Trypanosoma cruzi amastigotes (Tulahuen C2C4 strain); assay: Trypanosoma cruzi assay in infected L-6 cells; assay type: cell-based; details: L6, 96 h incubation, read-out: IC50 T. cruzi
# strict inequality: IC50 < 3 µg/mL yields class 1, everything else yields class 0

{"columns": ["COMPOUND", "CLASS_ASSIGNMENT"],
 "data": [
  ["O=[N+]([O-])c1cn2c(n1)OCC(COCc1ccc(OCc3ccccc3)cc1)C2 (stereo not shown)", "class 1"],
  ["O=[N+]([O-])c1cn2c(n1)OCC(COCc1cccc(-c3ccc(OC(F)(F)F)cc3)c1)C2 (stereo not shown)", "class 1"],
  ["CC1(COc2ccc(-c3ccc(C(F)(F)F)cc3)cc2)Cn2cc([N+](=O)[O-])nc2O1 (stereo not shown)", "class 0"],
  ["CC1(COc2ccc(-c3ccc(OC(F)(F)F)cc3)cc2)Cn2cc([N+](=O)[O-])nc2O1 (stereo not shown)", "class 0"],
  ["CC1(COCc2ccc(OC(F)(F)F)cc2)Cn2cc([N+](=O)[O-])nc2O1 (stereo not shown)", "class 1"]
]}

# input is_below(IC50, 3 µg/mL) for O=[N+]([O-])c1cn2c(n1)OCC(COCc1ccc(-c3ccc(OC(F)(F)F)cc3)cc1)C2 (stereo not shown) ?
# output class 1

# input is_below(IC50, 3 µg/mL) for O=[N+]([O-])c1cn2c(n1)OC(COCc1cccc(-c3ccc(OC(F)(F)F)cc3)c1)CC2 (stereo not shown) ?
# output class 0

# input is_below(IC50, 3 µg/mL) for O=[N+]([O-])c1cn2c(n1)OCC(COCc1cccc(OC(F)(F)F)c1)C2 (stereo not shown) ?
# output class 1

# input is_below(IC50, 3 µg/mL) for CC1(COc2ccc(-c3ccc(F)cc3)cc2)Cn2cc([N+](=O)[O-])nc2O1 (stereo not shown) ?
# output class 1

# input is_below(IC50, 3 µg/mL) for CC1(COc2ccc(OCc3ccccc3)cc2)Cn2cc([N+](=O)[O-])nc2O1 (stereo not shown) ?
# output class 0
